Recorded EC50, one value per entry.
- tested-system: ΔF508-CFTR (Homo sapiens, UniProt P13569, DEL508-508)
- Sequence (P13569 with tags, fused parts or gaps DEL508-508): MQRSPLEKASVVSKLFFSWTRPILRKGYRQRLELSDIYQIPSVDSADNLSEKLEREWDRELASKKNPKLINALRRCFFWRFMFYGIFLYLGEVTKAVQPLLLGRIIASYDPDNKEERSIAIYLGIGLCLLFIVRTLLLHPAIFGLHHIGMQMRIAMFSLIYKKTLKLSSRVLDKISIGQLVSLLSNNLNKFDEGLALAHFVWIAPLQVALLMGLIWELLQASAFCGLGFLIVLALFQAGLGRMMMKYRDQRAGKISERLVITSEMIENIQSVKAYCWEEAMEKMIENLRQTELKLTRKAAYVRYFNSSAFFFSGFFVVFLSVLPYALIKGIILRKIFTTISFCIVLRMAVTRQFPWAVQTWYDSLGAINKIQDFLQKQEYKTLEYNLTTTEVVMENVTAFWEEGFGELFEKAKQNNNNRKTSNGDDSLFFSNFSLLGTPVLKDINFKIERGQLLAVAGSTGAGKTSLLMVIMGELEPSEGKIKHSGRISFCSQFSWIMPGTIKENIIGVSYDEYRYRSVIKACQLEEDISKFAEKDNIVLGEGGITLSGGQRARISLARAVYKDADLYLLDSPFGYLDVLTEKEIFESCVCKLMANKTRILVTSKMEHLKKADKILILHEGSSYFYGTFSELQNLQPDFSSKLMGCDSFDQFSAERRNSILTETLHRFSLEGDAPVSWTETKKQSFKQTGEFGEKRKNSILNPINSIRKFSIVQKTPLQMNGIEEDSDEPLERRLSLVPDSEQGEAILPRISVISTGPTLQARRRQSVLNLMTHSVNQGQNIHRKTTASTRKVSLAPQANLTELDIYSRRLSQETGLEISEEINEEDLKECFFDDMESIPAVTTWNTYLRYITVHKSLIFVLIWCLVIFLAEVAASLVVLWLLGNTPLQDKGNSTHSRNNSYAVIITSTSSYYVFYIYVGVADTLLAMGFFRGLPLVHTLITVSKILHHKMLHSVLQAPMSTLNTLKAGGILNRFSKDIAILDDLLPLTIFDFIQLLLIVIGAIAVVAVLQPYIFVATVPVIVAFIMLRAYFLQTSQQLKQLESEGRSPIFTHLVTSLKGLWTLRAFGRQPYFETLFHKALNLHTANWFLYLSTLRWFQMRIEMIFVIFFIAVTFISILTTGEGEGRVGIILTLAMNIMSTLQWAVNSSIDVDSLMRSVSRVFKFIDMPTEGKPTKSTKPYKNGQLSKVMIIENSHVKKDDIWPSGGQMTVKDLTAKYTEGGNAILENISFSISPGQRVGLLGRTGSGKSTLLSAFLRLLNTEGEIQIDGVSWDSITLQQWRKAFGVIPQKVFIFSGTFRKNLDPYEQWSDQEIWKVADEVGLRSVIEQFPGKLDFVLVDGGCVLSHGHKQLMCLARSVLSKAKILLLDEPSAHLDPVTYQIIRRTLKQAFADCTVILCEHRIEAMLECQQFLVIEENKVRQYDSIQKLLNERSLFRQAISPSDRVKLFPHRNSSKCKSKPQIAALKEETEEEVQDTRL
- method-description: Fluorescence (YFP-H148Q/I152L) I− influx assay of ΔF508-CFTR potentiator activity in FRT cells
- Assay type: cell-based
- Set-up: expressed in transfected cells
- test-settings: sulfonamide containing compounds, 27° C. 24 h, forskolin 20 μM, read-out: Ka
Just the number please, in nM, no unit attached.

Here is how some molecules turned out for EC50.
COCCCNC(=O)c1c[nH]c2ccc(S(=O)(=O)N(C)c3c(C)cccc3C)cc2c1=O : 1420
CCCCNC(=O)c1c[nH]c2ccc(S(=O)(=O)N(C)c3c(C)cccc3C)cc2c1=O : 330
CCN(c1cccc(C)c1)S(=O)(=O)c1ccc2[nH]cc(C(=O)NCCC(C)C)c(=O)c2c1 : 720

Prompt: Which EC50 is listed for CCCCNC(=O)c1c[nH]c2ccc(S(=O)(=O)N(CC)CC)cc2c1=O ?
Response: 740

Prompt: Which EC50 is listed for CCCCCCCCNC(=O)c1c[nH]c2ccc(S(=O)(=O)N(C)c3ccccc3OCC)cc2c1=O ?
Response: 1160

Prompt: Which EC50 is listed for C=CCN(c1ccccc1)S(=O)(=O)c1ccc2[nH]cc(C(=O)NC3CCCCCC3)c(=O)c2c1 ?
Response: 120

Prompt: Which EC50 is listed for CCN(c1cccc(C)c1)S(=O)(=O)c1ccc2[nH]cc(C(=O)NCc3ccccc3OC)c(=O)c2c1 ?
Response: 600

Prompt: Which EC50 is listed for CCCCCNC(=O)c1c[nH]c2ccc(S(=O)(=O)N(C)c3cccc(C)c3)cc2c1=O ?
Response: 220
